Experiment: Cmax in mouse plasma at 100 mg/kg, ip
Assay type: ADME, organism-based
Parameters: dose 100 mg/kg, route intraperitoneal
measurementType: Cmax (µM)
Provide only the numeric value, understood in µM.

# return recorded Cmax for entry CC(Cl)C(=O)Nc1ccc(C#N)nc1 (stereo unspecified) 180

###

Assay: Cmax in mouse plasma at 15 mg/kg, ip
Assay type: ADME, organism-based
Set-up: dose 15 mg/kg, route intraperitoneal
measurementType: Cmax (µM)
Provide only the numeric value, understood in µM.

# return recorded Cmax for entry CC(Cl)C(=O)Nc1ccc(C#N)nc1 (stereo unspecified) 30
